# TEST DESCRIPTION: Pharmacokinetic study in beagle dogs
# Assay type: in vivo
# CONDITIONS: male, dog, plasma, po, intragastric administration 3 mg/kg
OUTCOME MEASURE: bioavailability (%)
Write the answer as a number in %, unit excluded.

# input Tell me the measured bioavailability of CCOc1cc2c(cc1OC)-c1c/c(=N\c3c(C)cc(C)cc3C)n(CCNC(=O)c3c(O)nnn3C)c(=O)n1CC2 , please.
# output 7.5
